pKi: −log10 of the molar value.
pKi values for 5-hydroxytryptamine receptor 1D (Homo sapiens, UniProt P28221) compiled from several publications are listed below.

# pKi measured on 5-hydroxytryptamine receptor 1D (Homo sapiens, UniProt P28221) for item CN1C2CCC1CC(OC(=O)c1c[nH]c3ccccc13)C2 (stereo not drawn) = < 5.00

# pKi measured on 5-hydroxytryptamine receptor 1D (Homo sapiens, UniProt P28221) for item `CSCC[C@@H](N)C(=O)O` = < 5.00

# pKi measured on 5-hydroxytryptamine receptor 1D (Homo sapiens, UniProt P28221) for item CCCN(CCC)C1CCc2cc(CS(=O)(=O)c3ccc(OC)cc3)ccc2C1 (stereo not drawn) = 6.00

# pKi measured on 5-hydroxytryptamine receptor 1D (Homo sapiens, UniProt P28221) for item N[C@@H](CCS)C(=O)O (racemic) = < 5.00

# pKi measured on 5-hydroxytryptamine receptor 1D (Homo sapiens, UniProt P28221) for item `NCCC(=O)Nc1ccc2cnn(S(=O)(=O)c3cccc4ccccc34)c2c1` = < 5.70

# pKi measured on 5-hydroxytryptamine receptor 1D (Homo sapiens, UniProt P28221) for item NC(CSSCC(N)C(=O)O)C(=O)O (stereo not drawn) = < 5.00

# pKi measured on 5-hydroxytryptamine receptor 1D (Homo sapiens, UniProt P28221) for item `O=c1cc(O)cc2oc(-c3ccc(O)c(-c4c(O)cc(O)c5c(=O)cc(-c6ccc(O)cc6)oc45)c3)cc(O)c1-2` = < 5.00

# pKi measured on 5-hydroxytryptamine receptor 1D (Homo sapiens, UniProt P28221) for item O=c1cc(O)cc2oc(-c3ccc(O)c(O)c3)c(OC3OC(CO)C(O)C(O)C3O)c(O)c1-2 (stereo not drawn) = < 5.00
